- System: SF-295
- assay-method-text: NCI tumour cell line growth inhibition, 48 h
Activity calls are given as the source filed them. No stated cut-off is given here; in the data, active = GI50 up to about 1.1 µM and inactive = higher. Non-standard residues stand in square brackets, D forms with d. Residues, ends and D or L forms follow the SMILES beside them. ξ: configuration not given here. *: point of attachment. Cbz = O=C(OCc1ccccc1)*; ξK = NCCCCC(N)C(=O)O
// allowed return values: active, inactive

Field: outcome | Entry: `O=C(/C=C/c1ccc([N+](=O)[O-])cc1)c1ccc(NCc2nc3ccccc3[nH]2)cc1`
inactive

I would be grateful if you could indicate the recorded call for `COC(=O)[C@H]1N[C@@H](C(=O)OC)C23CCC[C@H]2CC[C@]1(C(OC)OC)C3` .
inactive

Field: outcome | Entry: CN1C(=O)C2CCCC(=O)N2c2cccnc21 (configuration not stated)
inactive

// return assay outcome for COC(=O)C(=O)C(C(=O)C(=O)Nc1cc([N+](=O)[O-])ccc1C#N)c1nc2ccccc2nc1O (configuration not stated)
inactive

# lookup: test call for `CCCCn1cnnc1NS(=O)(=O)c1cc(C)c(Cl)cc1SCC(=O)O`
inactive

How was NCCCCC(NC(=O)OCc1ccccc1)C(=O)NCC(N)=O (configuration not stated) (Cbz-[ξK]-Gly-NH2) classified in this test?
inactive

Entry `CC(C)(C)c1cc(C(=O)/C=C/c2c(Cl)cccc2Cl)cc(C(C)(C)C)c1O` : call = ?
inactive
